// reported cell viability per item
# Test system: NOMO1
# measurement.notes: cell viability relative to DMSO control; higher = less cytotoxic
# recorded.conditions: RPMI 5 mM glucose + 10% FBS; 48 h; 15.4 µM
Unit % implied. Number only.

### Prompt # returns recorded cell viability (system: NOMO1) for Clc1ccc(C(Cn2ccnc2)OCc2ccc(Sc3ccccc3)cc2)c(Cl)c1 (centres undefined)
### Response 70.9

### Prompt Follow-up entry: CNC(=O)c1ccccc1Sc1ccc2c(/C=C/c3ccccn3)n[nH]c2c1
### Response 68.8

### Prompt Lookup CCc1nc(C(N)=O)c(Nc2ccc(N3CCC(N4CCN(C)CC4)CC3)c(OC)c2)nc1NC1CCOCC1
### Response 55.8

More entries:
### Prompt API: value(readout=cell viability, system=NOMO1) for record O=C1N\N=C(\C[C@@H]2CCN(C2)C(=O)C3CC3)N1C4=CC=C(C=C4)C5=CC=C6OC=CC6=C5
### Response 81.3

* * *

# System: SEM cells
# measurement.notes: cell viability relative to DMSO control; higher = less cytotoxic
# recorded.conditions: HPLM + 10% dialyzed FBS; 48 h; 0.00234 µM
# cell viability values compiled below
Kindly provide the numeric value in % only, without the unit symbol.

### Prompt Which measured cell viability value corresponds to CC(=O)OCC(CCn1cnc2cnc(N)nc21)COC(C)=O ?
### Response 65.5

### Prompt Now give it for Cc1ccc(Nc2nccc(N(C)c3ccc4c(C)n(C)nc4c3)n2)cc1[S+](N)(=O)[O-] too.
### Response 89

### Prompt Also, O=C(c1ccc(C(=O)N2CCC(N3CCCC3)CC2)c(Nc2ccccc2)c1)N1CCC(N2CCCC2)CC1 please.
### Response 111

Further cases:
### Prompt Which measured cell viability value corresponds to CCc1nc(C(N)=O)c(Nc2ccc(N3CCC(N4CCN(C)CC4)CC3)c(OC)c2)nc1NC1CCOCC1 ?
### Response 105

### Prompt How about this molecule: CC(CCc1ccc(O)cc1)NCCc1ccc(O)c(O)c1 (centres undefined)
### Response 113

### Prompt Can you handle COC1=CC2=C(C=C1CC3=C(F)C(=CC=C3)Cl)C(=O)\C(=C/N2[C@H](CO)C(C)C)C(O)=O next?
### Response 120

### Prompt Let us now turn to O=C(O)CCCc1ccc(N(CCCl)CCCl)cc1
### Response 108

### Prompt Query C[C@@H](Oc1ccc2[nH]nc(/C=C/c3cnn(CCO)c3)c2c1)c1c(Cl)cncc1Cl next
### Response 86.4

### Prompt Entry c1cc(N[C@@H]2CCNC2)nc(-c2cnc3ccc(-c4cn[nH]c4)cn23)c1 please
### Response 109

* * *

# Tested on: SEM cells
# measurement.notes: cell viability relative to DMSO control; higher = less cytotoxic
# recorded.conditions: RPMI 5 mM glucose + 10% dialyzed FBS; 48 h; 0.569 µM
// boundary case: cell viability equal to 90% maps to label 0; strictly smaller maps to label 1

Some entries whose results are on file:
### Prompt Just wondering, is cell viability of CC1(C)CCC(=C(\C1)C2=CC=C(Cl)C=C2)/CN3CCN(CC3)C4=CC(=C(C=C4)C(=O)N[S+]([O-])(=O)C5=CC=C(NCC6CCOCC6)C(=C5)[N+]([O-])=O)OC7=CN=C8[NH]C=CC8=C7 below 90%?
### Response label 1

### Prompt What would you report for COC(=O)[C@@H]1CC2=CC(=O)CC[C@]2(C)[C@@]23O[C@@H]2C[C@@]2(C)[C@@H](CC[C@@]24CCC(=O)O4)[C@H]13 ?
### Response label 0

### Prompt Same question for NC(=O)c1c(OCc2c(F)cc(Br)cc2F)nsc1NC(=O)NCCCCN1CCCC1 please.
### Response label 0

### Prompt Query CC[P](CC)(CC)=[Au][S][C@@H]1O[C@H](COC(C)=O)[C@@H](OC(C)=O)[C@H](OC(C)=O)[C@H]1OC(C)=O next
### Response label 0

### Prompt Proceed to O=C(O)c1nn(Cc2ccc(Cl)cc2Cl)c2ccccc12
### Response label 1

### Prompt Request: CN1C(=O)\C(=C/C2=C1N=C(NC3CCOCC3)N=C2)OC4=C(F)C=C(F)C=C4
### Response label 0

### Prompt Now consider NC(=O)[C@@H](CCC(F)(F)F)N(Cc1ccc(-c2ncon2)cc1F)[S+](=O)([O-])c1ccc(Cl)cc1 and answer again.
### Response label 0

### Prompt Proceed to COC1=CC=CC(=C1/C2=N/CC3=C(N=C(NC4=CC(=C(C=C4)C(O)=O)OC)N=C3)C5=CC=C(Cl)C=C25)F
### Response label 1

### Prompt Entry CCC1=C2CN3C(=O)\C4=C(/C=C3/C2=NC5=CC=C(O)C=C15)[C@@](O)(CC)C(=O)OC4 please
### Response label 1

### Prompt What about COc1cc([C@@H]2c3cc4c(cc3[C@@H](O[C@@H]3O[C@@H]5CO[C@@H](C)O[C@H]5[C@H](O)[C@H]3O)[C@H]3COC(=O)[C@H]23)OCO4)cc(OC)c1O ?
### Response label 1

Others:
### Prompt Here's an entry: CCN(CCO)CCCC(C)Nc1ccnc2cc(Cl)ccc12 (configuration not stated) . Is its cell viability below 90%?
### Response label 1

### Prompt Record: N[C@@H](Cc1ccc(N(CCCl)CCCl)cc1)C(=O)O
### Response label 0

### Prompt Now the molecule CO[C@H]1C[C@H]2OC[C@@]2(OC(C)=O)[C@H]3[C@H](OC(=O)C4=CC=CC=C4)[C@]5(O)C[C@H](OC(=O)[C@H](O)[C@@H](NC(=O)OC(C)(C)C)C6=CC=CC=C6)/C(=C(/[C@@H](OC)C(=O)[C@]13C)C5(C)C)C
### Response label 1

### Prompt Ok, now COc1ccc2c(c1)CC[C@@H](CN(C)CC(=O)O)[C@H]2c1ccccc1
### Response label 0

### Prompt Try this molecule too: Cc1ccnc(N[S+](=O)([O-])c2ccc(NC(=O)Nc3ccc([S+](=O)([O-])Nc4nccc(C)n4)cc3)cc2)n1
### Response label 1

### Prompt Same lookup for CN1CCC(=C2c3ccccc3CCc3sccc32)CC1 , please.
### Response label 0

### Prompt Consider next the molecule CNC(=O)c1cc(COc2nnc(Nc3ccc(Cl)cc3)c3ccoc23)ccn1 in the same way.
### Response label 0

### Prompt Entry O=C(O)CCc1ccc(NCc2cccc(Oc3ccccc3)c2)cc1 please
### Response label 0

### Prompt Entry to check: OCCN1CCN(CCCN2c3ccccc3Sc3ccc(C(F)(F)F)cc32)CC1
### Response label 1

### Prompt Another molecule: CC(=O)O[C@@]12CO[C@@H]1C[C@H](O)[C@]3(C)[C@@H]2[C@H](OC(=O)C4=CC=CC=C4)[C@]5(O)C[C@H](O)/C(=C(/[C@@H](O)C3=O)C5(C)C)C
### Response label 0

### Prompt Repeat for the following molecule: O=C(Nc1ccncc1)C(=O)c1cn(Cc2ccc(Cl)cc2)c2ccccc12
### Response label 1

### Prompt Can you handle CON(C)C(=O)N1\N=C(/S[C@]1(CCCN)C2=CC=CC=C2)C3=CC(=CC=C3F)F next?
### Response label 1

### Prompt Do the same for Oc1ccc(-c2nc(-c3ccncc3)c(-c3ccc(F)cc3)[nH]2)cc1 please
### Response label 1

### Prompt Next: C[C@H]1CN(C[C@@H](C)N1)C2=C(F)C3=C(C(=C2F)N)C(=O)\C(=C/N3C4CC4)C(O)=O
### Response label 0

* * *

# System: P12-Ichikawa
# measurement.notes: cell viability relative to DMSO control; higher = less cytotoxic
# recorded.conditions: RPMI 5 mM glucose + 10% dialyzed FBS; 48 h; 46.1 µM
Each entry below carries its reported cell viability.
Report as a plain number; the unit % is understood.

The following compounds have reported results that may help.
### Prompt Recall the recorded cell viability for Oc1ccc(C2CNCCc3c2cc(O)c(O)c3Cl)cc1 (stereo not drawn) with P12-Ichikawa and state it.
### Response 92.7

### Prompt Now consider O=C(O)C(=O)Nc1cccc(-c2nnn[nH]2)c1 .
### Response 102

### Prompt // query: C=C1C(=O)O[C@@H]2[C@H]3O[C@]3(C)CC/C=C(\C)CC[C@@H]12
### Response 2.57

### Prompt Same again, this time with O=C(Nc1cccc2c(=O)cc(-c3nnn[nH]3)oc12)c1ccc(OCCCCc2ccccc2)cc1
### Response 21.7

### Prompt One more compound: CCC[S+](=O)([O-])Nc1ccc(F)c(C(=O)c2c[nH]c3ncc(-c4ccc(Cl)cc4)cc23)c1F
### Response 95.2

### Prompt Continue with CC(=O)O[C@@]12CO[C@@H]1C[C@H](O)[C@]3(C)[C@@H]2[C@H](OC(=O)C4=CC=CC=C4)[C@]5(O)C[C@H](O)/C(=C(/[C@@H](O)C3=O)C5(C)C)C
### Response 18.5

### Prompt Quick one: Cc1ccc(Nc2nccc(N(C)c3ccc4c(C)n(C)nc4c3)n2)cc1[S+](N)(=O)[O-]
### Response 27.8

# evaluate next
### Prompt Notebook entry, P12-Ichikawa assay: cell viability of COc1cc([C@@H]2c3cc4c(cc3[C@@H](O[C@@H]3O[C@@H]5CO[C@@H](C)O[C@H]5[C@H](O)[C@H]3O)[C@H]3COC(=O)[C@H]23)OCO4)cc(OC)c1O = ?
### Response 4.42
